# Test Target: binding between TBK1 and full-length Regnase-1 (FL_Reg1) (Homo sapiens, UniProt Q5D1E8)
# Construct: made in house; host or cells: Expi293 cells
# Sequence (Q5D1E8 whole entry): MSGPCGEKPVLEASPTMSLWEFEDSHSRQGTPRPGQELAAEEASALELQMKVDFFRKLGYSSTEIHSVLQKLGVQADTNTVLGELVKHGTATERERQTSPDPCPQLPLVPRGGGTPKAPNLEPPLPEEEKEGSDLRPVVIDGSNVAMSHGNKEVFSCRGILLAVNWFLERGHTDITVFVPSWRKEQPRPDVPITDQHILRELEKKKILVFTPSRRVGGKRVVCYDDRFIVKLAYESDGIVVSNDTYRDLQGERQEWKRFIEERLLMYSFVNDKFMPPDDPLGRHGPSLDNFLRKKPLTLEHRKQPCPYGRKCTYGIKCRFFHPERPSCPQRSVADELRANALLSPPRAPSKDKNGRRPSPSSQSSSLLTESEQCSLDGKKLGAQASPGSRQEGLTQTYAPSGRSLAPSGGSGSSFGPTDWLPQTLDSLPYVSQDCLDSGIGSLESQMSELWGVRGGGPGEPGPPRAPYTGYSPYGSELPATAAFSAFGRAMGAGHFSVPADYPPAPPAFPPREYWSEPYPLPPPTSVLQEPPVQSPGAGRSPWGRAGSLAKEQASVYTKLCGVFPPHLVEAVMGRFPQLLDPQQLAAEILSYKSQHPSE
# Test Method Notes: Inhibition of kinase-Regnase-1 binding by the compounds (AlphaScreen), TBK1
# Measurement Setup: Table 13; binding between TBK1 and Regnase-1; read-out: Binding inhibition FL_Reg1, 50% inhibition concentration (TBK1)
pIC50: −log10 of the molar value. Residues, ends and D or L forms follow the SMILES beside them.
Please note: TRUE applies when pIC50 is 5 or greater, and FALSE applies otherwise.

CC[C@H](C)[C@@H]1NC(=O)[C@H](CC(=O)O)NC(=O)[C@H](C)N(C)C(=O)C[C@@H](C(=O)N2CCCC2)NC(=O)[C@H](Cc2ccc(O)cc2)NC(=O)[C@H](CC(=O)O)NC(=O)[C@H](Cc2c[nH]c3ccccc23)NC(=O)[C@H](Cc2ccc(O)cc2)NC(=O)[C@H](CC(=O)O)NC(=O)[C@H](Cc2ccccc2)NC(=O)[C@H](Cc2c[nH]c3ccccc23)NC1=O [PP18] (HELM PEPTIDE1{[meA].D.I.W.F.D.Y.W.D.Y.D.[C1CCN([*:1])C1]}$PEPTIDE1,PEPTIDE1,1:R1-11:R3$$$V2.0) | TRUE
CC[C@H](C)[C@@H]1NC(=O)[C@H](C)NC(=O)[C@H](CCCNC(=N)N)NC(=O)[C@H](Cc2ccc(O)cc2)NC(=O)[C@H](Cc2ccc(O)cc2)NC(=O)[C@H](C)NC(=O)[C@H](CO)NC(=O)[C@H](CC(N)=O)NC(=O)[C@H](Cc2ccccc2)NC(=O)[C@H](CC(N)=O)NC(=O)[C@H](C)N(C)C(=O)C[C@@H](C(=O)N2CCCC2)NC(=O)[C@H](Cc2c[nH]c3ccccc23)NC1=O [PP7] (HELM PEPTIDE1{[meA].N.F.N.S.A.Y.Y.R.A.I.W.D.[C1CCN([*:1])C1]}$PEPTIDE1,PEPTIDE1,1:R1-13:R3$$$V2.0) | FALSE
CC[C@H](C)[C@@H]1NC(=O)[C@H](CCCCN)NC(=O)[C@H](Cc2ccc(O)cc2)NC(=O)[C@H](Cc2c[nH]c3ccccc23)NC(=O)[C@H](CO)NC(=O)[C@H](CC(N)=O)NC(=O)[C@H](C)N(C)C(=O)C[C@@H](C(=O)N2CCCC2)NC(=O)[C@H](CC(C)C)NC(=O)CNC(=O)[C@H](Cc2c[nH]c3ccccc23)NC1=O [PP21] (HELM PEPTIDE1{[meA].N.S.W.Y.K.I.W.G.L.D.[C1CCN([*:1])C1]}$PEPTIDE1,PEPTIDE1,1:R1-11:R3$$$V2.0) | TRUE

Shifting focus to the compound that follows.
Ask: Is pIC50 for CC[C@H](C)[C@@H]1NC(=O)[C@H](Cc2c[nH]c3ccccc23)NC(=O)[C@H](CCC(N)=O)NC(=O)[C@H](Cc2ccc(O)cc2)NC(=O)[C@H](C(C)C)NC(=O)[C@H](C)NC(=O)[C@H](Cc2ccc(O)cc2)NC(=O)[C@H](CCCNC(=N)N)NC(=O)[C@H](C)N(C)C(=O)C[C@@H](C(=O)N2CCCC2)NC(=O)[C@@H]2CCCN2C(=O)[C@H](Cc2ccc(O)cc2)NC1=O [PP12] (HELM PEPTIDE1{[meA].R.Y.A.V.Y.Q.W.I.Y.P.D.[C1CCN([*:1])C1]}$PEPTIDE1,PEPTIDE1,1:R1-12:R3$$$V2.0) at or above 5?
Result: FALSE
